- target_under_test: PPAR γ (Homo sapiens)
- Construct: Following the challenge of the preadipocytes, cells may be lysed with lysis buffer; endogenous in cells; host or cells: preadipocytes
- Sequence (P37231 whole entry): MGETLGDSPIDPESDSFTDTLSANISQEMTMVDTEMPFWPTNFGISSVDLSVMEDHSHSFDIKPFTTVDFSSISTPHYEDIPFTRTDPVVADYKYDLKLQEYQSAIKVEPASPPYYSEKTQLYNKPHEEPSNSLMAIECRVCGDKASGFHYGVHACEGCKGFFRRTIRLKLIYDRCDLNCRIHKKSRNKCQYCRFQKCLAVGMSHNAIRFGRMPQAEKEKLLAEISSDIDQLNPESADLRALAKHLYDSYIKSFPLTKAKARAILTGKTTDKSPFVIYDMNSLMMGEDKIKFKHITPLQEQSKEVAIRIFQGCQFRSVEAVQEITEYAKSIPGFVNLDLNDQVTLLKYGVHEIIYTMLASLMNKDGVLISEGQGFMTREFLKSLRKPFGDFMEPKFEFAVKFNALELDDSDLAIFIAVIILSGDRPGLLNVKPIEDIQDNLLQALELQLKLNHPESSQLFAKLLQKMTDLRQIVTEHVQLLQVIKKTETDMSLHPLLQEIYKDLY
- assay_remarks: aP2 Assay for Agonist (induction of aP2 mRNA production); note: test concentration or dose not given here
- Type: cell-based
- condition_parameters: Table 1; fold increase over vehicle in induction of aP2 mRNA production
property_label: Agonist Intrinsic Activity

Here is how some molecules turned out for Agonist Intrinsic Activity.
{"molecule": "CCCCCCCCCCN1C(=O)C(CCOc2ccccc2C(F)(F)F)Oc2ccccc21 (centres unmarked) [Compound 17]", "target_under_test": "PPAR γ (Homo sapiens)", "Agonist Intrinsic Activity": 1.1}
{"molecule": "NC(=O)CCCCCN1C(=O)C(CCOc2ccccc2CC(=O)O)Oc2ccccc21 (centres unmarked) [Compound 98]", "target_under_test": "PPAR γ (Homo sapiens)", "Agonist Intrinsic Activity": 28}
{"molecule": "O=C(O)Cc1ccccc1OCCC1Oc2ccccc2N(CCCCCCF)C1=O (single isomer, unassigned) [Compound 93]", "target_under_test": "PPAR γ (Homo sapiens)", "Agonist Intrinsic Activity": 53.1}
{"molecule": "CCCCCCCCN1C(=O)C(CCOc2ccccc2CC(=O)O)Oc2ccccc21 (centres unmarked) [Compound 53]", "target_under_test": "PPAR γ (Homo sapiens)", "Agonist Intrinsic Activity": 26.4}
{"molecule": "CC(O)CCCCN1C(=O)C(CCOc2ccccc2CC(=O)O)Oc2ccccc21 (centres unmarked) [Compound 82]", "target_under_test": "PPAR γ (Homo sapiens)", "Agonist Intrinsic Activity": 4.9}
{"molecule": "COC(=O)Cc1ccccc1OCCC1Oc2ccccc2N(CCOC(C)=O)C1=O (centres unmarked) [Compound 47]", "target_under_test": "PPAR γ (Homo sapiens)", "Agonist Intrinsic Activity": 1.3}
{"molecule": "O=C(O)Cc1ccccc1OCCC1Oc2ccccc2N(CCC2CCCC2)C1=O (centres unmarked) [Compound 68]", "target_under_test": "PPAR γ (Homo sapiens)", "Agonist Intrinsic Activity": 43.2}
{"molecule": "COC(=O)Cc1ccccc1OCCC1Oc2ccccc2N(Cc2cccc(C(F)(F)F)c2)C1=O (centres unmarked) [Compound 27]", "target_under_test": "PPAR γ (Homo sapiens)", "Agonist Intrinsic Activity": 0.8}

Kindly note: PPAR γ (Homo sapiens), COCCCCN1C(=O)C(CCOc2ccccc2CC(=O)O)Oc2ccccc21 (centres unmarked) [Compound 114] , Agonist Intrinsic Activity value reported: 50.7

Where do these numbers come from? They come from patent US6908908B2.
